Assay Target: APOL1 (Homo sapiens)
Sequence (O14791 whole entry S342G/I384M, form open): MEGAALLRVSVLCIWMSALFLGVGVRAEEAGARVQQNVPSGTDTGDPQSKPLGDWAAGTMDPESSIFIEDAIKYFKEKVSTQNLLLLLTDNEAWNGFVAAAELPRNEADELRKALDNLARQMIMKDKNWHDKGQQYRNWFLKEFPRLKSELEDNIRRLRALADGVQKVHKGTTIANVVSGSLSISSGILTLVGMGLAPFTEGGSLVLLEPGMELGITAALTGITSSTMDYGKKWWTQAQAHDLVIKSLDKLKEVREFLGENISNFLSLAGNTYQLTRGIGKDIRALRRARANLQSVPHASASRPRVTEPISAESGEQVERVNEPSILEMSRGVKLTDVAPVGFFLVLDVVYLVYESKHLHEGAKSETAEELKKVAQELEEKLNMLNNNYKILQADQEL
Protocol: Multi-Tox Assay (MultiTox-Fluor Multiplex Cytotoxicity Assay in tet-inducible APOL1 T-REx-HEK293 cells; Table 46 does not say which APOL1 variant G0/G1/G2)
Measurement Conditions: IP50 = IC50 for cell proliferation, APOL1 variant not given
Task for the reader: assign each of the following compounds its reported IC50.

So what does the record say about IC50 for COCC1CC2(CC(c3cn(C)nn3)N1)OCCc1cc(C(F)(F)F)sc12 (stereo not drawn) ?
50 to 500 nM

So what does the record say about IC50 for CC1COC2(C[C@@H](c3cn(C)nn3)N[C@@H](C)C2)c2cc(C(F)(F)F)sc21 (stereo in doubt) ?
< 50 nM

So what does the record say about IC50 for Cc1nc([C@@H]2C[C@]3(C[C@H](C)N2)OCCc2cc(Cl)sc23)[nH]c1C (racemic) ?
50 to 500 nM

So what does the record say about IC50 for C[C@H]1C[C@@]2(C[C@@H](c3cnn(CC(C)(CO)CO)c3)N1)OCCc1cc(Cl)sc12 (racemic) ?
< 50 nM

So what does the record say about IC50 for Cc1ccc([C@@H]2C[C@]3(C[C@H](C)N2)OCCc2cc(Cl)sc23)nc1 (racemic) ?
< 50 nM

So what does the record say about IC50 for C[C@H]1C[C@@]2(C[C@@H](c3cn(C)nn3)N1)OC[C@@H](O)c1sc(Cl)cc12 ?
< 50 nM

So what does the record say about IC50 for C[C@H]1C[C@@]2(C[C@@H](c3cn(CC4CCOCC4)nn3)N1)OC[C@@H](O)c1cc(Cl)sc12 ?
50 to 500 nM

So what does the record say about IC50 for CC1CC2(CC(c3cccnc3)N1)OCCc1cc(Cl)sc12 (racemic) ?
< 50 nM

So what does the record say about IC50 for CNC(=O)c1cccc(C2CC3(CC(C)N2)OCCc2cc(Cl)sc23)c1 (stereo not drawn) ?
< 50 nM

So what does the record say about IC50 for C[C@H]1C[C@@]2(C[C@@H](CC3CCOCC3)N1)OCCc1cc(Cl)sc12 ?
> 500 nM

So what does the record say about IC50 for CC(=O)Nc1ccc([C@@H]2C[C@]3(C[C@H](C)N2)OCCc2cc(Cl)sc23)cc1 (racemic) ?
< 50 nM

So what does the record say about IC50 for C[C@H]1CC2(C[C@@H](c3cn(C)nn3)N1)OCC(C)(C)c1sc(C(F)(F)F)cc12 (stereo in doubt) ?
< 50 nM

So what does the record say about IC50 for C[C@H]1C[C@@]2(C[C@@H](c3cnccn3)N1)OCCc1cc(Cl)sc12 (racemic) ?
< 50 nM

So what does the record say about IC50 for C[C@H]1C[C@@]2(C[C@@H](c3cn(Cc4cnccn4)nn3)N1)OC[C@@H](O)c1cc(Cl)sc12 ?
50 to 500 nM

So what does the record say about IC50 for Cc1ncoc1[C@@H]1C[C@]2(C[C@H](C)N1)OCCc1cc(Cl)sc12 (racemic) ?
50 to 500 nM
